The values you see were collected from ChEMBL document CHEMBL1149174.

tested.target: Potassium voltage-gated channel subfamily KQT member 2 (Mus musculus) (UniProt Q9Z351)
Sequence (Q9Z351 whole entry): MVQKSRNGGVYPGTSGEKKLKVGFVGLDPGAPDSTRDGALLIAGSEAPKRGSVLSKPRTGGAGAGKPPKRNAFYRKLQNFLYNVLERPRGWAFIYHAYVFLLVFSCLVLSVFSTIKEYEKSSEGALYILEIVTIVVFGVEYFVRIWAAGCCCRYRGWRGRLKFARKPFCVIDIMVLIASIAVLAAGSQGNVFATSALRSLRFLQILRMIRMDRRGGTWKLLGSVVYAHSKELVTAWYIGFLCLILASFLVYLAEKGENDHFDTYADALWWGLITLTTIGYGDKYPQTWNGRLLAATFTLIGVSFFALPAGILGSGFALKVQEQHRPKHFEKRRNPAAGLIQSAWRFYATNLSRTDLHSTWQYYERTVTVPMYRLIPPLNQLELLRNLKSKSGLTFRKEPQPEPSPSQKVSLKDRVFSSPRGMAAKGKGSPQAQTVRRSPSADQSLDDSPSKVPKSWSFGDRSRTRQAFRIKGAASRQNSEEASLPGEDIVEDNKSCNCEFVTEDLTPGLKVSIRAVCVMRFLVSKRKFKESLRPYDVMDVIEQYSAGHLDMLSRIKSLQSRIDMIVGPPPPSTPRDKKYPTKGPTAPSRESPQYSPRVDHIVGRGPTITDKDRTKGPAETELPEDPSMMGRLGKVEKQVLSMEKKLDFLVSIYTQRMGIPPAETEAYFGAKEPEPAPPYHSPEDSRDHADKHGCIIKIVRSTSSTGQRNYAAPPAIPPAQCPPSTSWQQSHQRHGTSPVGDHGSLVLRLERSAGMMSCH
test.method.notes: Ability to open cloned mKCNQ2 channel expressed in Xenopus laevis oocytes at 10 uM expressed as percent of compound-free control current at -40 mV
Assay type: functional, cell-based
assay.conditions: Oocyte
parameter: KCNQ2 current at -40 mV as percent of compound-free control (%)
Your answer is read as %, so omit the unit and give the number.

Worked examples follow.
# compound, units, value.observed
rows = [
    ("C[C@H](NC/C=C/c1ccccc1)c1cccc(N2CCOCC2)c1", "%", 98),
    ("C[C@H](NC(=O)/C=C/c1ccccc1)c1cccc(N2CC3CC2CO3)c1 (stereo partly specified)", "%", 104),
    ("C[C@H](NC(=O)/C=C/c1ccccc1)c1cccc(N(C)C)c1", "%", 110),
    ("C[C@H](NC(=O)/C=C/c1ccccc1F)c1cccc(N2CCN(C)CC2)c1", "%", 107),
    ("O=C(/C=C/c1ccccc1)NCc1cccc(N2CCOCC2)c1", "%", 110),
    ("C[C@H](NC(=O)/C=C/c1cccc(F)c1)c1cccc(N2CCOCC2)c1", "%", 127),
    ("C[C@@H](NC(=O)/C=C/c1ccccc1)c1cccc(N2CCOCC2)c1", "%", 96),
    ("CC1CN(c2cccc([C@H](C)NC(=O)/C=C/c3ccccc3)c2)CC(C)O1 (stereo partly specified)", "%", 138),
]

Please fill in: KCNQ2 current at -40 mV as percent of compound-free control reported for COc1cccc(/C=C/C(=O)N[C@@H](C)c2cccc(N3CCOCC3)c2)c1 = 132

The compound identified as C[C@H](NC(=O)/C=C/c1ccccc1)c1cccc(N2CCOCC2)c1 registered its KCNQ2 current at -40 mV as percent of compound-free control at 163

----------
KCNQ2 current at -40 mV as percent of compound-free control values, listed per item
tested.target: UniProt:Q9Z351
test.method.notes: Ability to open cloned mKCNQ2 channel expressed in Xenopus laevis oocytes at 10 uM expressed as percent of compound-free control current at -40 mV
Format: functional, cell-based
assay.conditions: Oocyte
Please append the unit to your numeric answer.

Examples from the recorded data:
# compound, value.observed
measured = [
    ("CC1=C(C(=O)N[C@@H](C)c2cccc(N3CCOCC3)c2)Cc2ccccc21", "101%"),
    ("C[C@H](NC(=O)/C=C/c1ccccc1)c1cccc(N2CCCOCC2)c1", "110%"),
    ("C[C@H](NC(=O)/C=C/c1ccccc1F)c1cccc(N2CCOCC2)c1", "121%"),
    ("COc1ccc(N2CCOCC2)cc1[C@H](C)NC(=O)/C=C/c1ccccc1", "98%"),
]

Lab note: next compound to report on.
For CC1CN(c2cccc([C@H](C)NC(=O)/C=C/c3ccccc3F)c2)CC(C)O1 (stereo not given in full) the compound record lists KCNQ2 current at -40 mV as percent of compound-free control as 135%

----------
Quick reference: KCNQ2 current at -40 mV as percent of compound-free control of the listed items.
tested.target: Potassium voltage-gated channel subfamily KQT member 2 (Mus musculus)
test.method.notes: Ability to open cloned mKCNQ2 channel expressed in Xenopus laevis oocytes at 10 uM expressed as percent of compound-free control current at -40 mV
Type: functional, cell-based
assay.conditions: Oocyte
Report the figure in % without appending any unit label.

Record excerpt, results attached:
# compound, units, value.observed
measured = [
    ("COc1ccc(/C=C/C(=O)N[C@@H](C)c2cccc(N3CCOCC3)c2)cc1", "%", 140),
    ("C[C@H](NC(=O)/C=C/c1ccc(F)cc1)c1cccc(N2CCOCC2)c1", "%", 88),
    ("C[C@H](NC(=O)CCc1ccccc1)c1cccc(N2CCOCC2)c1", "%", 105),
    ("C[C@H](NC(=O)/C=C/c1ccccc1)c1ccc(F)c(N2CCOCC2)c1", "%", 129),
    ("C[C@@H](c1cccc(N2CCOCC2)c1)N(C)C(=O)/C=C/c1ccccc1", "%", 72),
]

Documented KCNQ2 current at -40 mV as percent of compound-free control of C[C@H](NC(=O)/C=C/c1cc(F)ccc1F)c1cccc(N2CCOCC2)c1 : 102

Sample COc1ccc([C@H](C)NC(=O)/C=C/c2ccccc2)cc1N1CCOCC1 ; KCNQ2 current at -40 mV as percent of compound-free control observed: 96
